We begin with a simple list: items and their reported MFI.
Target of assay: T1, human TMEM106B (human, UniProt Q9NUM4 2-274)
T1 construct: Full-length, on transiently transfected HEK293 cells, or natively expressed on HeLa, U251 and A549 cells; also called huTMEM106B; huTMEM
Procedure details: FACS A549, 1 ug/ml
Please respond with just the number, no unit label.

As a guide, the following entries are already answered.
Binder	Result number
anti-TMEM106B antibody TM-17 (antibody, V domains shown) VH: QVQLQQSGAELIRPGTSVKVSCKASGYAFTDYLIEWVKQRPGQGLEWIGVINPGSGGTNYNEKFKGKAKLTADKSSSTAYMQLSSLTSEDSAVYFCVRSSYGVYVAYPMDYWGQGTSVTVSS VL: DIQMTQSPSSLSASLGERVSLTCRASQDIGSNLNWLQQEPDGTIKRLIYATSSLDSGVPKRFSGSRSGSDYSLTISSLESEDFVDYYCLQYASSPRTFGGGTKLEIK	379
anti-TMEM106B antibody TM-37 (antibody, V domains shown) VH: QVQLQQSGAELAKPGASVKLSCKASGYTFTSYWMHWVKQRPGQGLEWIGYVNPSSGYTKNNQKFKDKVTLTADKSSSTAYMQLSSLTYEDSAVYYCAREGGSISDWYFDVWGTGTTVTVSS VL: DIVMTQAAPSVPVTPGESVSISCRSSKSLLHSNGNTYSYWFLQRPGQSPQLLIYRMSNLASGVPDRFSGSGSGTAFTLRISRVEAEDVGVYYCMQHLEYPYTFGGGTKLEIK	2980

Could you now look at the following binder, please?
Which MFI reading was recorded for the binder anti-TMEM106B antibody TM-7 (antibody, V domains shown) VH: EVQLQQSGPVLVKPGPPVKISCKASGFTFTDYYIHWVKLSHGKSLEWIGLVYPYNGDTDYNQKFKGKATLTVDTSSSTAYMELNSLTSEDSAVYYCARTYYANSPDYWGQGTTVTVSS VL: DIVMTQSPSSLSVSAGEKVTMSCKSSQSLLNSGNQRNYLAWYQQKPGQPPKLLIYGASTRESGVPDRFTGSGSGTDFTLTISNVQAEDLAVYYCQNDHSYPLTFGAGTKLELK ? 883

FYI, the data here is from patent US20230303681A1.
